Assay: A qHTS for Small Molecule Inhibitors of Shiga Toxin; further: 0% is about no effect
Details: Vero cells, Shiga toxin protein synthesis inhibition reporter; at 38.7 µM
Out of some 290,000 compounds screened, about 27,000 (9.3%) were called active. No stated cut-off is given here; in the data, active means inhibition mostly above about 28% (no sharp cut-off); inactive means mostly below about 43%. Many of the other results were omitted from the sample, so actives are more common in it than they were.
Classes to choose from: true for active, false for inactive

A selection of reference data follows.
CCCCCCn1cc(C(=O)O)c(=O)c2cc(F)c(N3CCCCC3)cc21; false
CCCCCOc1ccc(CSC2=NCCN2)cc1[N+](=O)[O-]; true

How was O=C(NCCCc1ccccc1)C(=O)c1c[nH]c2ccccc12 classified in this test?
false

How was Cc1ccc(C(=O)NC(=S)NCc2cccnc2)cc1 classified in this test?
true

How was NC(=O)C1CCN(C(=O)c2ccc3c(=O)n(Cc4cccc(Br)c4)c(=S)[nH]c3c2)CC1 classified in this test?
false

How was CCc1c(C)sc(NC(=O)c2cccs2)c1C(N)=O classified in this test?
true

How was Cc1ccc(NC(=S)NCCN2CCOCC2)cc1 classified in this test?
false

How was CCCCOc1ccc(CSC(=N)N)cc1[N+](=O)[O-] classified in this test?
false

How was Cc1cccc(NC(=S)Nc2ccc3cn[nH]c3c2)c1 classified in this test?
false

###

Experiment: A qHTS for Small Molecule Inhibitors of Shiga Toxin; further: 0% is about no effect
Conditions: Vero cells, Shiga toxin protein synthesis inhibition reporter; at 38.7 µM, stronger effect = higher value
In all, about 290,000 compounds went through this assay and about 27,000 (9.3%) were called active. This is one part of a sample in which actives are shown more often than they occur.
ASSAY READOUT: inhibition

Consider the molecule COC(=O)c1sccc1NC(=O)c1ccc(Cl)cc1 and give its measured inhibition.
-2.96% (inactive)

Consider the molecule COC(=O)c1ccc(NC(=O)c2cc(Cl)ccc2OC)cc1 and give its measured inhibition.
1.91% (inactive)

Consider the molecule Cn1c(=O)n(C)c2cc(C(=O)Nc3ccc4c(c3)OCO4)ccc21 and give its measured inhibition.
33.6% (active)

Consider the molecule O=C(NNC(=O)c1csc(-c2cccnc2)n1)Nc1ccc(Cl)cc1 and give its measured inhibition.
4.07% (inactive)

Consider the molecule COc1ccc(N2CCN(C(=O)C3CCN(C(=O)c4ccccc4Cl)CC3)CC2)cc1 and give its measured inhibition.
26.7% (inactive)

###

Experiment: A qHTS for Small Molecule Inhibitors of Shiga Toxin; further: 0% is about no effect
Conditions: Vero cells, Shiga toxin protein synthesis inhibition reporter; at 38.7 µM
The whole screen tested about 290,000 compounds, of which about 27,000 (9.3%) were called active. Cut-off read from the data, not from the text of the source: active = inhibition mostly above about 28% (no sharp cut-off); inactive = mostly below about 43%. This is one part of a sample in which actives are shown more often than they occur.
Classes to choose from: active, inactive

A selection of reference data follows.
CC[C@H](C)[C@H](NC(=O)[C@H](Cc1ccc(O)cc1)NC(=O)[C@@H](NC(=O)[C@H](CCCN=C(N)N)NC(=O)[C@@H](N)CC(=O)O)C(C)C)C(=O)N[C@@H](Cc1cnc[nH]1)C(=O)N1CCC[C@H]1C(=O)N[C@@H](Cc1ccccc1)C(=O)O; inactive
O=C(Nc1cccnc1)c1cc([N+](=O)[O-])ccc1Cl; inactive
COc1ccc(C(=O)NC(=S)Nc2ccccc2N2CCN(S(C)(=O)=O)CC2)cc1OC; inactive
Cc1cccnc1CCNC(=O)C1CCC(=O)N(Cc2cccc(F)c2)C1 (configuration not stated); inactive
CCCCc1cc(=O)oc2c(C)c(OCC(=O)N3CCC(C(N)=O)CC3)ccc12; inactive

How was O=C(NCCNc1ccccc1[N+](=O)[O-])c1ccccc1F classified in this test?
active

How was O=[N+]([O-])c1ccccc1NCc1ccc(Cl)cc1 classified in this test?
active
